Cited source: patent US20220259593A1

System: K562 CRISPRi cells
ASSAY_NOTES: Constant region variant library pooled growth screen, K562
Format: cell-based, human
MEASUREMENT_PARAMETERS: sgRNA constant region variant; activity relative to unmodified constant region cr995; mean CRISPRi activity
QUANTITY_MEASURED: Mean relative activity

cr649 (nucleic acid, listed as DNA, chemistry not fully specified) guide: GTTTAAGAGCTAAGCTGGAAACAGCATAGCAACTTTAAATAAGGTTAATCCGTTATCAACTTGAAAAAGTGGCACCGAGTCGGTGCT : 0.01138
cr160 (nucleic acid, listed as DNA, chemistry not fully specified) guide: GTTTAAGAGCTAAGCTGGAAACAGCATAGCAATCTTAAATAAGGCTAGTCCGTTATCAACTTGAAAAAGTGGCACCGAGTCGGTGCT : 0.007879
cr883 (nucleic acid, listed as DNA, chemistry not fully specified) guide: GTTTAAGAGCTAAGCTGGAAACAGCATAGCAAGTTTAAATAGGGCTAGTCGGTTATCAACTTGAAAAAGTGGCACCGAGTCGGTGCT : 0.006975
cr028 (nucleic acid, listed as DNA, chemistry not fully specified) guide: GTCCAAGAGCTAAGCTGGAAACAGCATAGCAAGTTTAAATAAGGCTAGTCCGTTATCAACTTGAAAAAGTGGCACCGAGTCGGTGCT : 0.01375
cr024 (nucleic acid, listed as DNA, chemistry not fully specified) guide: TTGTAAGAGCTAAGCTGGAAACAGCATAGCAAGTTTAAATAAGGCTAGTCCGTTATCAACTTGAAAAAGTGGCACCGAGTCGGTGCT : 0.01205
cr731 (nucleic acid, listed as DNA, chemistry not fully specified) guide: GTTTAAGAGCTAAGCTGGAAACAGCATAGCAAGGTTAAATAAGGCTAGTCCGTTATCAACTTGAAAAAGTGGTACCGAGTCGGTACT : 0.01505
cr204 (nucleic acid, listed as DNA, chemistry not fully specified) guide: GTTTAAGAGCTAAGCTGGAAACAGCATAGCAAGCTTAAATAAGTCTAGTACGTTATCAACTTGAAAAAGTGGCACCGAGTCGGTGCT : 0.01236
cr250 (nucleic acid, listed as DNA, chemistry not fully specified) guide: GTTTAAGAGCTAAGCTGGAAACAGCATAGCAAGTTTAAATAAGGCTAGACCGTTATCAACTTGAAAAAGTCGCACCGAGGCGGTGCT : 0.01012
cr418 (nucleic acid, listed as DNA, chemistry not fully specified) guide: GTTTAAGAGCTAAGCTGGAAACAGCATAGCAAGGTTAAATAAGGCTAGTCCGTTATCAACATGAAAATGTGGCACCGAGTCGGTGCT : 0.02069
cr376 (nucleic acid, listed as DNA, chemistry not fully specified) guide: GTTTAAGAGCTAAGCTGGAAACAGCATAGCAACTTTAAATAAGGCTAGTCCGTTATCAACTTGAAAAAGTGGCACGGAGTCCGTGCT : 0.006963
cr191 (nucleic acid, listed as DNA, chemistry not fully specified) guide: GTTTAAGAGCTAAGCTGGAAACAGCATAGCAACTTTAAATAAGGCTAGTCCGTTATCAACTTGAAAAAGTGGCAGCGAGTCGCTGCT : 0.01358
cr436 (nucleic acid, listed as DNA, chemistry not fully specified) guide: GTTTAAGAGCTAAGCTGGAAACAGCATAGCAAGGTTAAATAAGGCTAGTCCGTTATCATCTTGAAAAAGAGGCACCGAGTCGGTGCT : 0.008129
cr042 (nucleic acid, listed as DNA, chemistry not fully specified) guide: GTGGAAGAGCTAAGCTGGAAACAGCATAGCAAGTTTAAATAAGGCTAGTCCGTTATCAACTTGAAAAAGTGGCACCGAGTCGGTGCT : 0.0164
cr170 (nucleic acid, listed as DNA, chemistry not fully specified) guide: GTTTAAGAGCTAAGCTGGAAACAGCATAGCAAGGTTAAATAAGGCTAGTCCGTTATCAACTTGAAAAAGTGACACCGAGTCGGTGTT : 0.01501
